TARGET_OR_SYSTEM: Nav 1.7 (Homo sapiens (Human))
Sequence (Q15858 whole entry): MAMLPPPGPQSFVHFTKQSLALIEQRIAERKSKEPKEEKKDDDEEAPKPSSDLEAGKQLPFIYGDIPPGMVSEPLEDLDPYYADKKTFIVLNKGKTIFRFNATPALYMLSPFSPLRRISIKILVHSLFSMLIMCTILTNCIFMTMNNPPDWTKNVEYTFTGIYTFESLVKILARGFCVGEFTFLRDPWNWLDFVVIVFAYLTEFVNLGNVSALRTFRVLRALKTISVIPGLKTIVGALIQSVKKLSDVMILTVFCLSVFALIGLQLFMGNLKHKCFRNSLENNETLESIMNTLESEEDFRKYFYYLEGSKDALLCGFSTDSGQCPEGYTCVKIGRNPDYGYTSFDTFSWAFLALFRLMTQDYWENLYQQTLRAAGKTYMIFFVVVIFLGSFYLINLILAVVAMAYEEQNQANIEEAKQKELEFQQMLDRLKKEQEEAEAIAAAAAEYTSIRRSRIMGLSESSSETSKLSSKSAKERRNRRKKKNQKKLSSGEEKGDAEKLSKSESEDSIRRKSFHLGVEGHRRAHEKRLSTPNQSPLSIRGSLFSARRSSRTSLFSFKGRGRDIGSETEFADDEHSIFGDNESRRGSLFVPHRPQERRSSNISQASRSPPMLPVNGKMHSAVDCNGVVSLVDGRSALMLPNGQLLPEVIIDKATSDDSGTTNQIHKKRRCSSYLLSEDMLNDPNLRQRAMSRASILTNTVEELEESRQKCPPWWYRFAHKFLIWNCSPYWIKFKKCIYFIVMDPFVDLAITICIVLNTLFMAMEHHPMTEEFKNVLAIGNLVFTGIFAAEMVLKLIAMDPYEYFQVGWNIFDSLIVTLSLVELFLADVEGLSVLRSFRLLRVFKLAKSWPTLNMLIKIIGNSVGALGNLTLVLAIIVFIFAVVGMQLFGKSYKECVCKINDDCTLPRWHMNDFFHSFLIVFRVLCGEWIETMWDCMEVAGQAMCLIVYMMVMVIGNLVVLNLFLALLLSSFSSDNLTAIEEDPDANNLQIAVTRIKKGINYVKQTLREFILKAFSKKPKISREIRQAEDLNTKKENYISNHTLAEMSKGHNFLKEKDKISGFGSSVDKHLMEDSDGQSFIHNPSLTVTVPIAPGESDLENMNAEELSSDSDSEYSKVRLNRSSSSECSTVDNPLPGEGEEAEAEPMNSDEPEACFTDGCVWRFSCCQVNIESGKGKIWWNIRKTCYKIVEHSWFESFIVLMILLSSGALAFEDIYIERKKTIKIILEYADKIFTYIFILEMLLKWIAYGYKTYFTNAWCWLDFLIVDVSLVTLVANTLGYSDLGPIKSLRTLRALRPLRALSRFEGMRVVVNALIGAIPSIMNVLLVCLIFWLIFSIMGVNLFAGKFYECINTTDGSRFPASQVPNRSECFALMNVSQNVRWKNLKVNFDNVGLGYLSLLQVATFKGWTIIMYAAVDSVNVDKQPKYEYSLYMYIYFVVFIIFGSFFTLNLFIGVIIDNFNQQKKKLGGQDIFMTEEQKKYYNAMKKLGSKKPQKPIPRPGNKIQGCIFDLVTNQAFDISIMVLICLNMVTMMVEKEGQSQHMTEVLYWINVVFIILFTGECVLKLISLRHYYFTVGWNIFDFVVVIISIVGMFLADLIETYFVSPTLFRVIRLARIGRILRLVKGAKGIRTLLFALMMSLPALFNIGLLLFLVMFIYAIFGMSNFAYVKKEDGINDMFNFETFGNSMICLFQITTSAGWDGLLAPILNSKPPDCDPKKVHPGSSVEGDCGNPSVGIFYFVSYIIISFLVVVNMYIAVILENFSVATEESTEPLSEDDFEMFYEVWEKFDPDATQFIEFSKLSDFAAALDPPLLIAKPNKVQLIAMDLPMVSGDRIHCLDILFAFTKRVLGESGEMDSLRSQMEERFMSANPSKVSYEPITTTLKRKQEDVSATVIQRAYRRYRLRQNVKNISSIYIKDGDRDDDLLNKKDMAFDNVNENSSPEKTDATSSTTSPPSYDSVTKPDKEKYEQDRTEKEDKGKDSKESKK
PROTOCOL_SUMMARY: Nav 1.7 in vitro PX assay, PatchXpress whole cell voltage clamp
Assay type: cell-based
CONDITION_LABEL: HEK 293 cells stably transfected with human Nav1.7; partially inactivated state (20 to 50% inactivation)
pIC50: −log10 of the molar value.
PROPERTY: pIC50

Worked cases, pIC50 given:
- COMPOUND: "O=S(=O)(Nc1cnccn1)c1ccc2c(c1)OCCN2c1ccc(C(F)(F)F)cc1C1=CCNCC1"
  pIC50: 6.13
- COMPOUND: "O=S(=O)(Nc1ncns1)c1ccc2c(c1)OCCN2c1ccc(C(F)(F)F)cc1Cl"
  pIC50: 7.41
- COMPOUND: "COc1ncc(Cl)cc1N1CCOc2cc(S(=O)(=O)Nc3nccs3)ccc21"
  pIC50: 5.98
- COMPOUND: "O=S(=O)(Nc1nccs1)c1ccc2c(c1)OCCN2c1ccc2c(c1)OC(F)(F)O2"
  pIC50: 5.88
- COMPOUND: "O=S(=O)(Nc1nccs1)c1ccc2c(c1)OCCN2c1cccc2ccncc12 [Example 68, 2,2,2-Trifluoroacetate]"
  pIC50: 5.76

[A] N#Cc1cc(C(F)(F)F)ccc1N1CCOc2cc(S(=O)(=O)Nc3ncco3)ccc21
[B] O=S(=O)(Nc1nccs1)c1ccc2c(c1)OCCN2c1ccccc1Cl
[C] O=S(=O)(Nc1nccs1)c1ccc2c(c1)OCCN2c1ccc(Cl)c(F)c1 [Example 155, 2,2,2-Trifluoroacetate]
[D] Cc1ccc(Cl)cc1N1CCOc2cc(S(=O)(=O)Nc3nccs3)ccc21 [Example 178, 2,2,2-Trifluoroacetate]
Sort the 4 compounds by pIC50; largest first, smallest last. Order the labels as requested and give them as your answer.
D, B, A, C

[A] C[C@@H]1COc2cc(S(=O)(=O)Nc3nccs3)ccc2N1c1ccc(C(F)(F)F)cc1C#N (single isomer, unassigned)
[B] CCC1CN(c2ccc(C(F)(F)F)cc2C#N)c2ccc(S(=O)(=O)Nc3nccs3)cc2O1 (single isomer, unassigned) [Example 102]
Which item exceeds the other in pIC50, A or B ? Please indicate the selected item by its label.
A

[1] O=S(=O)(Nc1nccs1)c1ccc2c(c1)OCCN2c1ccc(OCC(F)(F)F)cc1
[2] CN1CC=C(c2cc(C(F)(F)F)ccc2N2CCOc3cc(S(=O)(=O)Nc4ncns4)ccc32)CC1 [Example 22, 2,2,2-Trifluoroacetate]
Which item exceeds the other in pIC50, 1 or 2 ? Please indicate the selected item by its label.
2

[I] O=S(=O)(Nc1ccno1)c1ccc2c(c1)OCCN2c1ccc(C(F)(F)F)cc1Cl
[II] CC(C)(O)c1ccccc1N1CCOc2cc(S(=O)(=O)Nc3nccs3)ccc21
Which item exceeds the other in pIC50, I or II ? Please indicate the selected item by its label.
II
